ASSAY_TEXT: chemical genetic growth profiling, strain panel (AID 1159580);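 note: tested at 20 µM; growth read once vehicle control cultures reached saturation at 30 °C; 1 = growth at the plate median or of vehicle wells; lower values mean less growth of the strain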
EXPERIMENTAL_CONTEXT: S. cerevisiae deletion strains, growth OD, locus YOR265W, strain rbl2, active compounds read low
In all, about 5,500 compounds went through this assay and about 2,000 (36%) were called active. Inconclusive results (about 18%) are left out. This is one part of the list. Where a SMILES comes first, the peptide text is derived from it.
Overview of reported normalized growth across a group of molecules:
// no unit, no text: just the number

The examples below pair each entry with its known result.
[[record]]
molecule = "COc1cccc2c(C)cc(=O)[nH]c12"
value = 0.966

[[record]]
molecule = "Cc1[nH]ccc2c1[nH]c1cc(=O)ccc12"
value = 0.996

[[record]]
molecule = "CC[n+]1c(-c2ccccc2)c2cc(N)ccc2c2ccc(N)cc21"
value = 0.974


Using the record for CNC(=O)Oc1cccc2c1OC(C)(C)O2 , report its normalized growth.
1.01

What about this molecule? CCc1cc(C(N)=S)ccn1
1.03

CC(CC(C(N)=O)(c1ccccc1)c1ccccc1)N(C)C (configuration not stated) , same question.
0.991

Likewise for COC(=O)[C@H](Cc1ccccc1)NC(=O)[C@@H](N)CC(=O)O (H-Asp-Phe-OMe) ?
1.01

Again, but for CC(=O)O[C@]1(C(C)=O)CCC2C3C=C(Cl)C4=CC(=O)[C@@H]5C[C@@H]5[C@]4(C)C3CC[C@@]21C (some centres not stated)
1.02

Same for NC(N)=NC(=O)c1nc(Cl)c(N)nc1N
1.02

Likewise for Cc1cc(C2CCCCC2)n(O)c(=O)c1 ?
0.066

// query: CC(C)N(CCC(C(N)=O)(c1ccccc1)c1ccccn1)C(C)C (configuration not stated)
0.0664

Now give it for CCCC(C)(COC(N)=O)COC(=O)NC(C)C (configuration not stated) too.
1
